Each entry below lists one item and its recorded σ1/SERT value.
- SUBJECT_OF_TEST: σ1R (Cavia porcellus, UniProt Q60492)
- Construct: tissue BioReclamation IVT (Hicksville, N.Y.); host or cells: male Hartley guinea pig brain cortex membranes
- Sequence (Q60492 whole entry): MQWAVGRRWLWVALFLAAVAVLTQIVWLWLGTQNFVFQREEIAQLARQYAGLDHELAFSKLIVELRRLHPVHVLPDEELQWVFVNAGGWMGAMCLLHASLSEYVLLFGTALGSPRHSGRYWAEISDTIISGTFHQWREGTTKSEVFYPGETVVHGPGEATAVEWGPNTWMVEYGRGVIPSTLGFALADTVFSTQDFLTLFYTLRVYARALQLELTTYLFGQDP
- TEST_DESCRIPTION: σ1R radioligand binding in guinea pig cortex ([3H]-(+)-Pentazocine competition)
- CONDITION_NOTES: ratio of σ1 to SERT affinity values
- Protocol: Binding affinities of the analogue compounds were evaluated at the DAT and SERT in rat brain membranes, and sigma-1 in guinea pig brain membranes according to the following protocols. σ1R Radioligand Binding in Guinea Pig Cortex Male Hartley guinea pig cortices were dissected from freshly harvested brains (shipped cold in PBS buffer from BioReclamation IVT (Hicksville, N.Y.)) and frozen at −80° C. for future use. […]
REPORTED_METRIC: σ1/SERT

>  <COMPOUND>
Cl.Cl.Fc1ccc(C(SCCNC2CCN(Cc3ccc(Cl)cc3)CC2)c2ccc(F)cc2)cc1

>  <RECORDED_MEASUREMENT>
0.13

$$$$
>  <COMPOUND>
Cl.Cl.Fc1ccc(CNC2CCN(CCSC(c3ccc(F)cc3)c3ccc(F)cc3)CC2)cc1

>  <RECORDED_MEASUREMENT>
0.16

$$$$
>  <COMPOUND>
Cl.Cl.OC(Cc1ccccc1)CN(CC(O)Cc1ccccc1)C1CCN(CCSC(c2ccc(F)cc2)c2ccc(F)cc2)CC1 (stereo not shown)

>  <RECORDED_MEASUREMENT>
0.21

$$$$
>  <COMPOUND>
CC(O)CN1CCC2(CCN(CC[S+]([O-])C(c3ccc(F)cc3)c3ccc(F)cc3)CC2)C1 (stereo not shown)

>  <RECORDED_MEASUREMENT>
0.11

$$$$
>  <COMPOUND>
Fc1ccc(C(SCCN2CCC(NCc3ccccc3)CC2)c2ccc(F)cc2)cc1

>  <RECORDED_MEASUREMENT>
0.19

$$$$
>  <COMPOUND>
O=C(c1ccc(F)cc1)N1CCC(NCCSC(c2ccc(F)cc2)c2ccc(F)cc2)CC1

>  <RECORDED_MEASUREMENT>
0.066

$$$$
>  <COMPOUND>
Cl.Cl.OC(CNC1CCN(CCSC(c2ccc(F)cc2)c2ccc(F)cc2)CC1)Cc1ccccc1 (stereo not shown)

>  <RECORDED_MEASUREMENT>
1.33

$$$$
>  <COMPOUND>
Cl.Cl.Fc1ccc(C(SCCN2CCC(NCc3ccc(Cl)cc3)CC2)c2ccc(F)cc2)cc1

>  <RECORDED_MEASUREMENT>
0.16

$$$$
>  <COMPOUND>
[O-][S+](CCNC1CCN(CC(O)Cc2ccccc2)CC1)C(c1ccc(F)cc1)c1ccc(F)cc1 (stereo not shown)

>  <RECORDED_MEASUREMENT>
0.58

$$$$
>  <COMPOUND>
CC(O)CN1[C@H](C)CN(CCSC(c2ccc(F)cc2)c2ccc(F)cc2)C[C@@H]1C (stereo partly shown)

>  <RECORDED_MEASUREMENT>
0.00038

$$$$
>  <COMPOUND>
Fc1ccc(C(SCCNC2CCN(Cc3ccccc3)CC2)c2ccc(F)cc2)cc1

>  <RECORDED_MEASUREMENT>
0.0098

$$$$
>  <COMPOUND>
OC(CN1CCC2(CCN(CCSC(c3ccc(F)cc3)c3ccc(F)cc3)CC2)C1)c1ccccc1 (stereo not shown)

>  <RECORDED_MEASUREMENT>
0.37

$$$$
>  <COMPOUND>
C[C@@H]1CN(CCSC(c2ccc(F)cc2)c2ccc(F)cc2)C[C@H](C)N1CC(O)Cc1ccccc1 (stereo partly shown)

>  <RECORDED_MEASUREMENT>
0.010

$$$$
>  <COMPOUND>
Cl.O=C(c1ccc(F)cc1)N1CCC(NCC[S+]([O-])C(c2ccc(F)cc2)c2ccc(F)cc2)CC1 (stereo not shown)

>  <RECORDED_MEASUREMENT>
0.29

$$$$
>  <COMPOUND>
Cl.Cl.Fc1ccc(CN2CCC(NCCSC(c3ccc(F)cc3)c3ccc(F)cc3)CC2)cc1

>  <RECORDED_MEASUREMENT>
0.048

$$$$
>  <COMPOUND>
Cl.Cl.Fc1ccc(C(SCCNC2CCN(CCc3ccccc3)CC2)c2ccc(F)cc2)cc1

>  <RECORDED_MEASUREMENT>
0.40

$$$$

* * *

- SUBJECT_OF_TEST: DAT (Rattus norvegicus, UniProt P23977)
- Construct: 100 μl of tissue preparation (1.5 mg of brain striatum membranes per well); tissue Bioreclamation IVT (Hicksville, N.Y.); host or cells: male Sprague-Dawley rat brain striatum membranes
- Sequence (P23977 whole entry): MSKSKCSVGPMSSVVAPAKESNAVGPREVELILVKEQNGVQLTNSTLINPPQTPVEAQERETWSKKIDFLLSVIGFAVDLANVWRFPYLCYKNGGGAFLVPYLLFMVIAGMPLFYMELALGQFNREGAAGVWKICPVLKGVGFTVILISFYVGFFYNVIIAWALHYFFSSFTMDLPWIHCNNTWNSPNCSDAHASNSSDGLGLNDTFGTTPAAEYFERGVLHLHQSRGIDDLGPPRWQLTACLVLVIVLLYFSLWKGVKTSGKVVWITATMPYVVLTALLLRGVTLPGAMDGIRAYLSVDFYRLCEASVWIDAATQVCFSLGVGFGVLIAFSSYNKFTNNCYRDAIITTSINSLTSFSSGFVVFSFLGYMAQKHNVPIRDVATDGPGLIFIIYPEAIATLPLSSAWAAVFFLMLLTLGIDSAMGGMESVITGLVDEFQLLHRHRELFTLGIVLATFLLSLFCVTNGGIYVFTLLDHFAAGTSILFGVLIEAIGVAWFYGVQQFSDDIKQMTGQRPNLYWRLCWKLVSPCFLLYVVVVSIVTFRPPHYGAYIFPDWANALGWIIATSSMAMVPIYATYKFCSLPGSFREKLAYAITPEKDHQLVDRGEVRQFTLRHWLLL
- TEST_DESCRIPTION: DAT radioligand binding in rat striatum ([3H]-WIN35,428 competition)
- CONDITION_NOTES: ratio of SERT Ki to DAT Ki
Each entry below lists one item and its recorded SERT/DAT value.

>  <COMPOUND>
CC(C)(C)C(=O)N1CCC(NCCSC(c2ccc(F)cc2)c2ccc(F)cc2)CC1.Cl

>  <SERT/DAT>
2.84

$$$$
>  <COMPOUND>
Cl.Cl.Fc1ccc(CNC2CCN(CCSC(c3ccc(F)cc3)c3ccc(F)cc3)CC2)cc1

>  <SERT/DAT>
4.78

$$$$
>  <COMPOUND>
C[C@@H]1CN(CC[S+]([O-])C(c2ccc(F)cc2)c2ccc(F)cc2)C[C@H](C)N1CC(O)Cc1ccccc1 (stereo partly shown)

>  <SERT/DAT>
377.58

$$$$
>  <COMPOUND>
Cl.Cl.Fc1ccc(C(SCCNC2CCN(Cc3ccc(C(F)(F)F)cc3)CC2)c2ccc(F)cc2)cc1

>  <SERT/DAT>
8.53

$$$$
>  <COMPOUND>
Cl.Cl.Fc1ccc(C(SCCNC2CCN(Cc3ccc(Cl)cc3)CC2)c2ccc(F)cc2)cc1

>  <SERT/DAT>
8.99

$$$$
>  <COMPOUND>
Cl.Cl.Fc1ccc(C(SCCNC2CCN(Cc3cc4ccccc4[nH]3)CC2)c2ccc(F)cc2)cc1

>  <SERT/DAT>
9.61

$$$$
>  <COMPOUND>
CC(C)(C)CN1CCC(NCC[S+]([O-])C(c2ccc(F)cc2)c2ccc(F)cc2)CC1 (stereo not shown)

>  <SERT/DAT>
16.22

$$$$
>  <COMPOUND>
Cl.Cl.OC(Cc1ccccc1)CN(CC(O)Cc1ccccc1)C1CCN(CCSC(c2ccc(F)cc2)c2ccc(F)cc2)CC1 (stereo not shown)

>  <SERT/DAT>
8.44

$$$$
>  <COMPOUND>
Cl.Cl.OC(CNC1CCN(CCSC(c2ccc(F)cc2)c2ccc(F)cc2)CC1)Cc1ccccc1 (stereo not shown)

>  <SERT/DAT>
1.39

$$$$
>  <COMPOUND>
Fc1ccc(C(SCCN2CCC(NCc3ccccc3)CC2)c2ccc(F)cc2)cc1

>  <SERT/DAT>
3.05

$$$$
>  <COMPOUND>
Fc1ccc(C(SCCNC2CCN(Cc3ccccc3)CC2)c2ccc(F)cc2)cc1

>  <SERT/DAT>
12.37

$$$$
>  <COMPOUND>
O=C(c1ccc(F)cc1)N1CCC(NCCSC(c2ccc(F)cc2)c2ccc(F)cc2)CC1

>  <SERT/DAT>
66.99

$$$$
>  <COMPOUND>
Cl.Cl.[O-][S+](CCNC1CCN(Cc2ccc(F)cc2)CC1)C(c1ccc(F)cc1)c1ccc(F)cc1 (stereo not shown)

>  <SERT/DAT>
7.31

$$$$
>  <COMPOUND>
Cl.Cl.Fc1ccc(CN2CCC(NCCSC(c3ccc(F)cc3)c3ccc(F)cc3)CC2)cc1

>  <SERT/DAT>
10.86

$$$$
>  <COMPOUND>
Cl.O=C(c1ccc(F)cc1)N1CCC(NCC[S+]([O-])C(c2ccc(F)cc2)c2ccc(F)cc2)CC1 (stereo not shown)

>  <SERT/DAT>
59.84

$$$$
>  <COMPOUND>
Cl.Cl.Fc1ccc(C(SCCN2CCC(NCc3ccc(Cl)cc3)CC2)c2ccc(F)cc2)cc1

>  <SERT/DAT>
4.57

$$$$

* * *

- SUBJECT_OF_TEST: σ1R (Cavia porcellus, UniProt Q60492)
- Construct: tissue BioReclamation IVT (Hicksville, N.Y.); host or cells: male Hartley guinea pig brain cortex membranes
- TEST_DESCRIPTION: σ1R radioligand binding in guinea pig cortex ([3H]-(+)-Pentazocine competition)
- CONDITION_NOTES: ratio of σ1 to DAT affinity values

>  <COMPOUND>
OC(CN1CCC2(CCN(CCSC(c3ccc(F)cc3)c3ccc(F)cc3)CC2)C1)c1ccccc1 (centres unmarked)

>  <σ1/DAT>
0.36

$$$$
>  <COMPOUND>
C[C@@H]1CN(CCSC(c2ccc(F)cc2)c2ccc(F)cc2)C[C@H](C)N1CC(O)Cc1ccccc1 (some centres unmarked)

>  <σ1/DAT>
7.60

$$$$
>  <COMPOUND>
Cl.Cl.Fc1ccc(C(SCCNC2CCN(Cc3ccc(Cl)cc3)CC2)c2ccc(F)cc2)cc1

>  <σ1/DAT>
1.15

$$$$
>  <COMPOUND>
Cl.Cl.Fc1ccc(C(SCCNC2CCN(CCc3ccccc3)CC2)c2ccc(F)cc2)cc1

>  <σ1/DAT>
1.83

$$$$
>  <COMPOUND>
CC(O)CN1CCC2(CCN(CC[S+]([O-])C(c3ccc(F)cc3)c3ccc(F)cc3)CC2)C1 (centres unmarked)

>  <σ1/DAT>
0.14

$$$$
>  <COMPOUND>
O=C(C1CC1)N1CCC(NCCSC(c2ccc(F)cc2)c2ccc(F)cc2)CC1

>  <σ1/DAT>
0.26

$$$$
>  <COMPOUND>
Cl.Cl.Fc1ccc(CNC2CCN(CCSC(c3ccc(F)cc3)c3ccc(F)cc3)CC2)cc1

>  <σ1/DAT>
0.74

$$$$
>  <COMPOUND>
CC(O)CN1[C@H](C)CN(CCSC(c2ccc(F)cc2)c2ccc(F)cc2)C[C@@H]1C (some centres unmarked)

>  <σ1/DAT>
0.24

$$$$
